assay: Antiproliferative activity against human CAR cells after 72 hrs by MTT assay; type: functional, cell-based
Reported IC50 values are given for each entry in this list.
A number alone suffices; assume µM.

Record excerpt, results attached:
{"COMPOUND": "COc1cc(O)cc(/C=C/c2ccc(OC(=O)C(C)(CO)CO)cc2)c1", "IC50 [µM]": 64}
{"COMPOUND": "CC(CO)(CO)C(=O)Oc1ccc(/C=C/c2cc(OC(=O)C(C)(CO)CO)cc(OC(=O)C(C)(CO)CO)c2)cc1", "IC50 [µM]": 124}
{"COMPOUND": "CC(=O)Oc1cc(/C=C/c2ccc(OC(=O)C(C)(CO)CO)cc2)cc(OC(C)=O)c1", "IC50 [µM]": 116}
{"COMPOUND": "COc1ccc(/C=C/c2cc(OC(=O)C(C)(CO)CO)cc(OC(=O)C(C)(CO)CO)c2)cc1", "IC50 [µM]": 70.8}
{"COMPOUND": "Oc1ccc(/C=C/c2cc(O)cc(O)c2)cc1 [RESVERATROL]", "IC50 [µM]": 88.3}

**Query** Entry COc1cc(/C=C/c2ccc(OC(=O)C(C)(CO)CO)cc2)cc(OC(C)=O)c1 needs its IC50 filled in; supply it.
**Result** 50.3

**Query** Entry COc1cc(/C=C/c2ccc(OC(=O)C(C)(CO)CO)cc2)cc(OC(=O)C(C)(CO)CO)c1 needs its IC50 filled in; supply it.
**Result** 59.8

**Query** Entry CC(=O)Oc1cc(/C=C/c2ccc(OC(=O)C(C)(CO)CO)cc2)cc(OC(=O)C(C)(CO)CO)c1 needs its IC50 filled in; supply it.
**Result** 119

**Query** Entry COc1ccc(/C=C/c2cc(OC)cc(OC(=O)C(C)(CO)CO)c2)cc1 needs its IC50 filled in; supply it.
**Result** 67.3

**Query** Entry COc1ccc(/C=C/c2cc(O)cc(OC)c2)cc1 needs its IC50 filled in; supply it.
**Result** 98.3

**Query** Entry COc1cc(/C=C/c2ccc(OC(=O)C(C)(CO)CO)cc2)cc(OC)c1 needs its IC50 filled in; supply it.
**Result** 32.6
